- protocolDetails: Differential scanning fluorimetry (protein thermal shift; TM1 Fc, TM2 Fab)
- Format: physicochemical
- settings: melting temperature of the Fab domain; Table 11
experimentalReadout: TM2
// unit must come after the numeric part

{"columns": ["molecule", "TM2"],
 "data": [
  ["SRP2196-B08 (antibody, V domains shown) VH: EVQLVESGGGLVQPGGSLRLSCAASGFNITGYYIHWVRQAPGKGLEWVGQISPNSGYTYLADSVKGRFTISADTSKNTAYLQMNSLRAEDTAVYYCARDSRRYVRGWDYWGQGTLVTVSS VL: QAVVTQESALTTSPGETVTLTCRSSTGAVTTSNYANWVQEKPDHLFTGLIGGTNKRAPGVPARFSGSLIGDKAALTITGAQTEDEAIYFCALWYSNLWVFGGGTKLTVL", "75 °C"]
]}

Moving on to the next molecule.
Prompt: Requested read-out: TM2. Entry: SRP2196-B11 (antibody, V domains shown) VH: EVQLVESGGGLVQPGGSLRLSCAASGFNITGYYIHWVRQAPGRGLEWVGQISPNSGYTYYADSVKGRFTISADTSKNTAYLQMNSLRAEDTAVYYCARDSRRYIRSWDYWGQGTLVTVSS VL: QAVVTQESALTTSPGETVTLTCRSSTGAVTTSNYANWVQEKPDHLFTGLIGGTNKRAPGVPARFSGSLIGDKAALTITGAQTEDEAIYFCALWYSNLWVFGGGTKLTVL
Response: 74 °C

Cited source for all entries: patent US12226490B2
